Items are presented alongside their recorded CRE.
species on record: Rattus norvegicus; assay: Open TG-GATES - Regimen: Daily Repeat; type: toxicity, organism-based, Sprague-Dawley; set-up: regimen Daily Repeat, gender Male, age 6 weeks; conditions: in vivo, po, 100 mg/kg, 72 h, tissue Plasma, route gavage, dose level Low, time 3 day

Example cases with answers are listed next.
structure.smiles.string	CRE
COC(=O)C1=C(C)NC(C)=C(C(=O)OC)C1c1ccccc1[N+](=O)[O-]	0.2 mg/dL
O=C(OC[C@H]1O[C@@H](OC(=O)c2cc(O)c(O)c(OC(=O)c3cc(O)c(O)c(O)c3)c2)[C@H](OC(=O)c2cc(O)c(O)c(OC(=O)c3cc(O)c(O)c(O)c3)c2)[C@@H](OC(=O)c2cc(O)c(O)c(OC(=O)c3cc(O)c(O)c(O)c3)c2)[C@@H]1OC(=O)c1cc(O)c(O)c(OC(=O)c2cc(O)c(O)c(O)c2)c1)c1cc(O)c(O)c(OC(=O)c2cc(O)c(O)c(O)c2)c1	0.5 mg/dL
CNC(=C[N+](=O)[O-])NCCSCc1ccc(CN(C)C)o1	0.4 mg/dL
CCOc1ccc(NC(C)=O)cc1	0.2 mg/dL
CN/C(=N/CCSCc1nc[nH]c1C)NC#N	0.4 mg/dL

// moving on: another record for CRE
Task: CRE lookup needed for Cc1nnc2n1-c1ccc(Cl)cc1C(c1ccccc1Cl)=NC2 , thanks.
Output: 0.2 mg/dL

###

species: Rattus norvegicus; assay: Open TG-GATES - Regimen: Daily Repeat; format: toxicity, organism-based, Sprague-Dawley; design: regimen Daily Repeat, gender Male, age 6 weeks; settings: in vivo, po, 100 mg/kg, […], tissue Plasma, route gavage, dose level Low, time 7 day
test.readout: PL (mg/dL)
Field: numeric (mg/dL). Do not append units.

Before answering, review these 5 worked examples.
structure.smiles.string	PL [mg/dL]
O=C(OC[C@H]1O[C@@H](OC(=O)c2cc(O)c(O)c(OC(=O)c3cc(O)c(O)c(O)c3)c2)[C@H](OC(=O)c2cc(O)c(O)c(OC(=O)c3cc(O)c(O)c(O)c3)c2)[C@@H](OC(=O)c2cc(O)c(O)c(OC(=O)c3cc(O)c(O)c(O)c3)c2)[C@@H]1OC(=O)c1cc(O)c(O)c(OC(=O)c2cc(O)c(O)c(O)c2)c1)c1cc(O)c(O)c(OC(=O)c2cc(O)c(O)c(O)c2)c1	160.8
COC(=O)C1=C(C)NC(C)=C(C(=O)OC)C1c1ccccc1[N+](=O)[O-]	144
CNC(=C[N+](=O)[O-])NCCSCc1ccc(CN(C)C)o1	149.2
CCOc1ccc(NC(C)=O)cc1	165.2
Cc1nnc2n1-c1ccc(Cl)cc1C(c1ccccc1Cl)=NC2	157.4

Please find the next compound below.
Task: Return reported PL; argument: CN/C(=N/CCSCc1nc[nH]c1C)NC#N
Output: 161

###

organism: Rattus norvegicus; experiment: Open TG-GATES - Regimen: Single; format: toxicity, organism-based, Sprague-Dawley; design: regimen Single, gender Male, age 6 weeks; settings: in vivo, po, 300 mg/kg, 9 h, tissue Blood, route gavage, dose level Middle
# Mono per record follows
# number only, unit % dropped from output

# annotated cases, reported Mono shown
compound	Mono / %
O=C(OC[C@H]1O[C@@H](OC(=O)c2cc(O)c(O)c(OC(=O)c3cc(O)c(O)c(O)c3)c2)[C@H](OC(=O)c2cc(O)c(O)c(OC(=O)c3cc(O)c(O)c(O)c3)c2)[C@@H](OC(=O)c2cc(O)c(O)c(OC(=O)c3cc(O)c(O)c(O)c3)c2)[C@@H]1OC(=O)c1cc(O)c(O)c(OC(=O)c2cc(O)c(O)c(O)c2)c1)c1cc(O)c(O)c(OC(=O)c2cc(O)c(O)c(O)c2)c1 [TANNIC ACID]	6.8
CNC(=C[N+](=O)[O-])NCCSCc1ccc(CN(C)C)o1 [RANITIDINE]	2.6
CN/C(=N/CCSCc1nc[nH]c1C)NC#N [CIMETIDINE]	2.6
Cc1nnc2n1-c1ccc(Cl)cc1C(c1ccccc1Cl)=NC2 [TRIAZOLAM]	2.2

Task: # input compound: COC(=O)C1=C(C)NC(C)=C(C(=O)OC)C1c1ccccc1[N+](=O)[O-] [NIFEDIPINE] ; wanted: its Mono
Output: 3.6

Taken from ChEMBL document CHEMBL3885861.
